Test system: Noggin (protein binding on small-molecule microarray)
assay: small molecules binding Noggin protein – biochemical, 635/667 nm fluorescence, primary screen (AID 1095);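 further: score merges 667 nm feature fluorescence with signal to noise over triplicate slides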
assay-context: 635 nm fluorescence, higher = more signal

[
  {
    "molecule": "C=CCNC(=O)[C@@H]1[C@H]2C(=O)O[C@H](c3ccccc3)[C@H](c3ccccc3)N2[C@H](c2ccccc2OCCO)[C@@]12C(=O)N(C(=O)OCCOC)c1ccc(C#CCC(C(=O)OC)C(=O)OC)cc12",
    "composite z-score": 1.9
  },
  {
    "molecule": "CO[C@H]1O[C@H](CO)[C@@H](OC(=O)Nc2cccc(F)c2)[C@H](OC(=O)Nc2ccccc2-c2ccccc2)[C@@H]1OC(=O)Nc1ccccc1-c1ccccc1",
    "composite z-score": 0.615
  },
  {
    "molecule": "C=CCC(OC(C)=O)[C@@H]1[C@@H](N(Cc2cc3ccccc3o2)C(=O)c2ccc(-c3ccccc3)cc2)c2cc(OCCCO)ccc2N1C(=O)Cc1ccc2ccccc2c1 (some centres not stated)",
    "composite z-score": -0.125
  },
  {
    "molecule": "CCOC(=O)C1=C[C@@H](C(C)(C)C)N(S(=O)(=O)c2ccc(C)cc2)[C@H]1c1ccc(Cl)c(Cl)c1",
    "composite z-score": 0.346
  },
  {
    "molecule": "COC(=O)[C@@]1(Cc2ccc(OC)cc2)[C@H]2c3cc(C(=O)N4CCCC4)n(CCN4CCOCC4)c3C[C@H]2CN1C(=O)c1ccccc1",
    "composite z-score": 0.398
  },
  {
    "molecule": "O=S(=O)(NCCCO)c1ccc(Br)cc1",
    "composite z-score": 0.355
  },
  {
    "molecule": "Cc1ccc(S[C@]2(C(=O)NCCN3CCOCC3)CC(=O)N(C3CCCCC3)[C@@H]2c2ccc(CO)cc2)cc1",
    "composite z-score": 0.218
  }
]
